molecular target: UniProt:P09874; assay: PARP enzyme inhibition assay; assay type: biochemical; settings: 20 nM purified PARP (5 nM for tight-binding inhibitors), 500 μM NAD+, 25° C.; several values in one cell = repeat determinations; read-out: Inhibition Constant Ki
Property: pKi
Formally, pKi is defined as -log10 of the concentration c, with c in mol/L.

Would you kindly share the measured pKi for `O=C1NCCn2c(-c3cccc(Oc4cc(Cl)cc(Cl)c4)c3)nc3cccc1c32` ?
7.96

* * *

biological target: purified PARP protein (Homo sapiens); assay: PARP enzyme inhibition assay; type: biochemical; conditions: 20 nM purified PARP (5 nM for tight-binding inhibitors), 500 μM NAD+, 25° C.; several values in one cell = repeat determinations; read-out: Inhibition Constant Ki
Property: pKi
pKi (log units): -log10 of the concentration in mol/L.

Given the compound `O=C1NCCn2c(-c3ccc(CN4CCCC4)cc3)nc3cccc1c32` , what is its reported pKi?
8.30

* * *

target: purified PARP protein (Homo sapiens, UniProt P09874); assay: PARP enzyme inhibition assay; type: biochemical; settings: 20 nM purified PARP (5 nM for tight-binding inhibitors), 500 μM NAD+, 25° C.; several values in one cell = repeat determinations; read-out: Inhibition Constant Ki
Sequence (P09874 whole entry): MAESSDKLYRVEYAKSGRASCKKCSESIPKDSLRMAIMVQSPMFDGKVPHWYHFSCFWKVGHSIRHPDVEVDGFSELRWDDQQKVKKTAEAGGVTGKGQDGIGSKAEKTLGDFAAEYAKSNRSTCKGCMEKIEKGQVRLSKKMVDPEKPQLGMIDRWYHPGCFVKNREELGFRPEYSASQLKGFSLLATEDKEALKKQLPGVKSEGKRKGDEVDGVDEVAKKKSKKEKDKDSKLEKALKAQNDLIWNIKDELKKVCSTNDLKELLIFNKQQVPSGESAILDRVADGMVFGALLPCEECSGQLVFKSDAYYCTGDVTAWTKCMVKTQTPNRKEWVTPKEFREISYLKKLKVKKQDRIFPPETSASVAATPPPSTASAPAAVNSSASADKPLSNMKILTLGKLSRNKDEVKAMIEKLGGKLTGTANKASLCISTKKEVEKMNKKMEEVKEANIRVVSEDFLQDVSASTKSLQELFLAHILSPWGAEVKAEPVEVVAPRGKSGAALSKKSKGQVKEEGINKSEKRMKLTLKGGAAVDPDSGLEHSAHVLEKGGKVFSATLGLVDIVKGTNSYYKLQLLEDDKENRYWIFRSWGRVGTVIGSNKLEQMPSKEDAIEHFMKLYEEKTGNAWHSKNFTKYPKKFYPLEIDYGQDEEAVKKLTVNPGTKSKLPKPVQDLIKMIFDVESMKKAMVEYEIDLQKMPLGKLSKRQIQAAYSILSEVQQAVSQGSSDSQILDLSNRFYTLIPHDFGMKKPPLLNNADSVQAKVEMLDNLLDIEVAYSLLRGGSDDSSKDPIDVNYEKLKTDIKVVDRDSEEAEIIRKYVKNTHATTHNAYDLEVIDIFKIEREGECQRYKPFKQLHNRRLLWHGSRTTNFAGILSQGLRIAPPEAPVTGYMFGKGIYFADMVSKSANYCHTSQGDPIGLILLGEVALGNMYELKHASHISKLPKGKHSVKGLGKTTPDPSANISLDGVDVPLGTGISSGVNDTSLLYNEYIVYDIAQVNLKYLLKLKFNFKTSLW
Counter-ions that a name gives are not always drawn.
Response field label: string, one of Satisfied (Ki strictly below 10 nM) or Not satisfied.

Below are worked cases with known answers.
In [3]: df
Out[3]:
                                   molecule  assigned_label
0  COC[C@@H]1CC[C@@H](COC)N1Cc1ccc(-c2nc3cccc4c3n2CCNC4=O)cc1   Not satisfied
1  O=C1NCCn2c(-c3cccc(Oc4cccnc4)c3)nc3cccc1c32       Satisfied
2  Nc1nc2cccc3c2n1CCNC3=O [Example 146, Hydrochloride]   Not satisfied
3  COc1cccc(CCNCc2ccc(-c3nc4cccc5c4n3CCNC5=O)cc2)c1       Satisfied
4  O=C1NCCn2c(-c3ccc(CN4CCCC4)cc3)nc3cc(F)cc1c32       Satisfied
5  Cn1nnc(-c2ccc(-c3nc4cccc5c4n3CCNC5=O)cc2)n1       Satisfied

Hello, is Ki of the following molecule strictly smaller than 10 nM? `O=C1NCCn2c(-c3ccnc(Cl)c3)nc3cccc1c32`
Not satisfied

Dear colleague, could you confirm whether Ki of `CN(C)c1cc(-c2nc3cccc4c3n2CCNC4=O)ccn1` falls below 10 nM? Thanks.
Not satisfied

* * *

Below is a list of entries, each paired with its recorded melting point value.

Consider the worked cases shown below.
In [3]: df
Out[3]:
                                   molecule       observed_result
0    CNCc1ccc(-c2nc3cc(F)cc4c3n2CCNC4=O)cc1  204 to 208 °C (dec.)
1  O=C1NCCn2c(-c3cccc(Oc4cccc(C(F)(F)F)c4)c3)nc3cccc1c32         121 to 122 °C
2         O=C1NCCn2c(NCc3ccccc3)nc3cccc1c32         186 °C (dec.)
3  CN1CCCC1c1ccc(-c2nc3cccc4c3n2CCNC4=O)cc1 (stereo not shown)  235 to 238 °C (dec.)
4           O=C1NCCn2c(-c3nccs3)nc3cccc1c32         271 to 276 °C

Continue with the molecule presented below.
Which melting point value is on record for O=C1NCCn2c(-c3ccc(CCOC4CCCCO4)cc3)nc3cccc1c32 (stereo not shown) ?
189 to 190 °C

Data provenance: patent US6548494B1
